Where do the numbers come from? From patent US4507487A.

method notes: Mouse blood levels after single intramuscular injection
Assay type: in vivo, mice
experimental parameters: 20 mg/kg im, 30 minutes, read-out: Mouse Blood Level
readout name: concentration at 0.5 h
Form entry: enter the amount, then its unit.

Consider the following illustrative entries.
QUERY: Query (compound): CO/N=C(\C(=O)NC1C(=O)N2C(C(=O)[O-])=C(C[n+]3ccsc3SC)CS[C@H]12)c1csc(N)n1 (stereo partly drawn) ; field requested: concentration at 0.5 h
RESULT: 20000 ng/mL

QUERY: Can you share its concentration at 0.5 h? I mean this compound: CSc1scc[n+]1CC1=C(C(=O)[O-])N2C(=O)C(NC(=O)/C(=N\OC(C)(C)C(=O)O)c3csc(N)n3)[C@H]2SC1 (stereo partly drawn)
RESULT: 18000 ng/mL

Others:
QUERY: // concentration at 0.5 h lookup, key: CSc1scc[n+]1CC1=C(C(=O)[O-])N2C(=O)C(NC(=O)/C(=N\OC3(C(=O)O)CCC3)c3csc(N)n3)[C@H]2SC1 (stereo partly drawn)
RESULT: 8600 ng/mL
